target: cIAP2-BIR3 (Homo sapiens, UniProt Q13489); construct: cIAP2-BIR3; purchased Reaction Biology APT-11-372; assay: cIAP2-BIR3 fluorescence polarization binding assay; conditions: FP, probe AbuRPFK-5FAM (SM5F) 5 nM, cIAP2-BIR3 80 nM, 60 min at 25° C.
Sequence (Q13489 238-349 limits assumed): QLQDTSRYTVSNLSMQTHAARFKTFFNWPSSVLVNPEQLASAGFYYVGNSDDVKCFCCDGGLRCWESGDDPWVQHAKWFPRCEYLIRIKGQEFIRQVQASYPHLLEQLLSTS
For each record, write down the corresponding IC50.

A selection of reference data follows.
>  <MOLECULE>
CN[C@@H](C)C(=O)N[C@H](C(=O)N1CCC[C@H]1C(=O)N[C@@H]1CCOc2c(-c3cccc4c3OCC[C@H]4NC(=O)[C@@H]3CCCN3C(=O)[C@@H](NC(=O)[C@H](C)NC)C3CC3)cccc21)C1CC1 [Compound V-E]

>  <SYSTEM_TESTED>
cIAP2-BIR3 (Homo sapiens, UniProt Q13489)

>  <IC50>
10 to 100 nM

$$$$
>  <MOLECULE>
CN[C@@H](C)C(=O)N[C@H](C(=O)N1CCC[C@H]1C(=O)N[C@@H]1CCCc2c(OCCOCCOc3cccc4c3CCC[C@H]4NC(=O)[C@@H]3CCCN3C(=O)[C@@H](NC(=O)[C@H](C)NC)C3CCOCC3)cccc21)C1CCOCC1 [Compound II-B]

>  <SYSTEM_TESTED>
cIAP2-BIR3 (Homo sapiens, UniProt Q13489)

>  <IC50>
10 to 100 nM

$$$$
>  <MOLECULE>
CN[C@@H](C)C(=O)N[C@H](C(=O)N1CCC[C@H]1C(=O)N[C@@H]1CCCc2c(OCCCCCOc3cccc4c3CCC[C@H]4NC(=O)[C@@H]3CCCN3C(=O)[C@@H](NC(=O)[C@H](C)NC)C3CCOCC3)cccc21)C1CCOCC1 [Compound I-A]

>  <SYSTEM_TESTED>
cIAP2-BIR3 (Homo sapiens, UniProt Q13489)

>  <IC50>
1 to 10 nM

$$$$
>  <MOLECULE>
CC[C@H](NC(=O)[C@H](C)NC)C(=O)N1CCC[C@H]1C(=O)N[C@@H]1CCOc2c(-c3cccc4c3OCC[C@H]4NC(=O)[C@@H]3CCCN3C(=O)[C@H](CC)NC(=O)[C@H](C)NC)cccc21 [Compound V-B]

>  <SYSTEM_TESTED>
cIAP2-BIR3 (Homo sapiens, UniProt Q13489)

>  <IC50>
10 to 100 nM

$$$$
>  <MOLECULE>
CC[C@H](NC(=O)[C@H](C)NC)C(=O)N1CCC[C@H]1C(=O)N[C@@H]1CCCc2c(-c3ccc(-c4cccc5c4CCC[C@H]5NC(=O)[C@@H]4CCCN4C(=O)[C@H](CC)NC(=O)[C@H](C)NC)cc3)cccc21 [III-I]

>  <SYSTEM_TESTED>
cIAP2-BIR3 (Homo sapiens, UniProt Q13489)

>  <IC50>
10 to 100 nM

$$$$

Report IC50 for each item below.
1. CN[C@@H](C)C(=O)N[C@H](C(=O)N1CCC[C@H]1C(=O)N[C@@H]1CCCc2cc(OCCOCCOc3ccc4c(c3)CCC[C@H]4NC(=O)[C@@H]3CCCN3C(=O)[C@@H](NC(=O)[C@H](C)NC)C3CCCCC3)ccc21)C1CCCCC1 [Compound II-D]
2. CN[C@@H](C)C(=O)N[C@H](C(=O)N1CCC[C@H]1C(=O)N[C@@H]1CCCc2c(NC(=O)c3cccc4c3CCC[C@H]4NC(=O)[C@@H]3CCCN3C(=O)[C@@H](NC(=O)[C@H](C)NC)C(C)C)cccc21)C(C)C [VII-A]
3. CN[C@@H](C)C(=O)N[C@H](C(=O)N1CCC[C@H]1C(=O)N[C@@H]1CCCc2c(-c3cccc4c3CCC[C@H]4NC(=O)[C@@H]3CCCN3C(=O)[C@@H](NC(=O)[C@H](C)NC)C(C)C)cccc21)C(C)C [Compound V-M]

Return:
10 to 100 nM
1 to 10 nM
1 to 10 nM

Enquiry: For CN[C@@H](C)C(=O)NC(C(=O)N1CCC[C@H]1C(=O)N[C@@H]1CCCc2cc(N3CCN(c4ccc5c(c4)CCC[C@H]5NC(=O)[C@@H]4CCCN4C(=O)[C@@H](NC(=O)[C@H](C)NC)C4CCCCC4)CC3)ccc21)C1CCCCC1 (stereo partly drawn) [VIII-B] , what is its reported IC50?
Return: 100 to 1000 nM
